Origin of values: PubChem BioAssay

PROCEDURE_SUMMARY: optical density shifts of acrAB sulA E. coli – strain DRC41, OD650, 48 h, E. coli filamentation inducer project, primary screen (AID 1152);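 note: E. coli MC1000 strain DRC41 lacking acrAB efflux pump and sulA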
TEST_SETTINGS: higher = more signal, called active from +8 up or from −8 down
Listing of entries alongside the reported z-score.

MOLECULE	z-score
CC1CC/C=C\[C@H]2OC34C=CCN(C(C)(C)C)C(=O)[C@H]3N(CCCO)C(=O)[C@@H]4C2C(=O)O1 (stereo partly drawn)	0.0581
COCCOC(=O)N1C(=O)[C@@]2(c3cc(C#CCNC(N)=O)ccc31)[C@H](C(=O)Nc1nc3ccccc3s1)[C@H]1C(=O)O[C@H](c3ccccc3)[C@H](c3ccccc3)N1[C@@H]2c1ccccc1OCCO	1.14
COc1cc(C(O)C2C=CC3C(=O)N(c4ccccc4)C(=O)C3N2Nc2ccccc2F)cc(OC)c1OC (stereo not drawn)	-1.19
CC(C)(C)OC(=O)CC[C@@]1(C(=O)NCCN2CCOCC2)N=C(c2ccc(OCCCO)cc2)O[C@@H]1c1ccccc1CN=[N+]=[N-]	-0.936
O=C1N(CCS(=O)(=O)c2ccccc2)c2ccccc2C[C@]12N=C(c1ccc(OCCCO)cc1)O[C@@H]2c1ccccc1	-0.499
C=CC[C@@]1(C(=O)N(C)C)N=C(c2ccc(OCCCO)cc2)O[C@@H]1c1ccccc1CN=[N+]=[N-]	1.34
CC(C)(C)OC(=O)CC[C@]1(C(=O)NCC(O)CO)N=C(c2ccc(OCCCO)cc2)O[C@H]1c1ccccc1N=[N+]=[N-] (stereo partly drawn)	0.618
COCCOC(=O)N1C(=O)[C@@]2(c3cc(C#CCCO)ccc31)[C@H](c1ccccc1OCCO)N1[C@H](c3ccccc3)[C@H](c3ccccc3)OC(=O)[C@H]1[C@@H]2C(N)=O	1.46

====

PROCEDURE_SUMMARY: binders of probe aHhip on microarray, primary screen, stem cell growth factor project, biochemical, small-molecule microarray, fluorescence 635/667 (AID 1087);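 note: score merges spot fluorescence at 667nm with spot signal to noise ratio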
TEST_SETTINGS: higher = more signal
Listing of entries alongside the reported composite z-score.

COMPOUND	composite z-score
CC(C)C(=C=CC[C@H](O)c1ccccc1OCCO)C[C@H](O)c1cc(Cl)cc(Cl)c1O	0.0505
CN1C(=O)C2C=CC(C(O)c3ccc(-c4ccccc4)s3)N(NC(=O)OC(C)(C)C)C2C1=O (stereo not drawn)	-0.0618
O=C1C[C@@](C(=O)NCc2ccccc2)(c2ccc([N+](=O)[O-])cc2)[C@@H](c2ccc(CO)cc2)N1C1CCCCC1	-0.158
CC(C)OC(=O)CC(=O)CC(O)c1cccc([N+](=O)[O-])c1 (stereo not drawn)	-0.305
CCOC(=O)C[C@H]1[C@H](OC(=O)Cc2ccc3c(c2)OCO3)[C@@H](NC(=O)Cc2ccc(OC)cc2)c2cc(OCCCO)ccc2N1C(=O)Cc1ccc(OC)cc1	0.132
COC(=O)[C@@]1(Cc2ccccc2)[C@H]2c3cc(C(=O)N(C)C)n(CCSC(=N)N)c3C[C@H]2CN1C(=O)c1ccccc1	0.0401
[N-]=[N+]=NCc1ccccc1[C@@H]1OC(c2ccc(OCCCO)cc2)=N[C@]1(Cc1ccccc1N=[N+]=[N-])C(=O)O	0.455
C=CCNC(=O)[C@H]1[C@@H]2C(=O)O[C@@H](c3ccccc3)[C@@H](c3ccccc3)N2[C@@H](c2ccc(OCCO)cc2)[C@]12C(=O)Nc1ccccc12	-0.613
